Target: T1, human CD112R expressed on Jurkat cells (human, UniProt Q6DKI7 1-326)
T1 construct: whole, on cells; Used for both Jurkat-CD112R OE cells and wild type Jurkat cells; which cells is said under assay; also called PVRIG; Jurkat-CD112R OE
T1 sequence (looked up): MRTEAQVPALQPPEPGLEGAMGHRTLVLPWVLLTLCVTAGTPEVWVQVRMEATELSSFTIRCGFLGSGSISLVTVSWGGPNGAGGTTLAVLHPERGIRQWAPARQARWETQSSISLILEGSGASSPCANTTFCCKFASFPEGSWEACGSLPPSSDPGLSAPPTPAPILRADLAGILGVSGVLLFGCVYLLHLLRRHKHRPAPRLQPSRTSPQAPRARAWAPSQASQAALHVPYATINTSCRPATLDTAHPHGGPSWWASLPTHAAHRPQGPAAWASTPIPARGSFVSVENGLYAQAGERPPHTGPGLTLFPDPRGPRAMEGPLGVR
Test: flow cytometry competition on Jurkat-CD112R OE cells; competitor biotinylated his-tagged human CD112
Form field: CD112 blocking max inhibition (%) (one value per entry).
Give your result in % as a bare value.

Input line: Which CD112 blocking max inhibition (%) is reported for this binder? Antibody 5 (antibody, V domains shown, Purified as IgG; compared with an IgG1 isotype control and detected with anti-human IgG Fc; also called antibody clone number 5; clone 5) VH: EVQLLESGGGLVQPGGSLRLSCAASGFTFSDYAMIWVRQAPGKGLEWVSAISGGGESTYYADSVKGRFTISRDNSKNTLYLQMNSLRAEDTAVYYCAKDYSSGDWIDYGMDVWGQGTTVTVSS VL: DIQMTQSPSSLSASVGDRVTITCQASQDISNYLNWYQQKPGKAPKLLIYDASNLATGVPSRFSGSGSGTDFTFTISSLQPEDIATYYCQQFDLLPPTFGGGTKVEIK
Output line: 97

Input line: Field request: CD112 blocking max inhibition (%) | item: Antibody 38 (antibody, V domains shown, Purified as IgG; compared with an IgG1 isotype control and detected with anti-human IgG Fc; also called antibody clone number 38; clone 38) VH: EVQLLESGGGLVQPGGSLRLSCAASGFTFSGHLMSWVRQAPGKGLEWVSAISGSAGETYYADSVKGRFTISRDNSKNTLYLQMNSLRAEDTAVYYCARDAYYDDWSGWADWYFDLWGRGTLVTVSS VL: EIVLTQSPATLSLSPGERATLSCRASQSVSRYLAWYQQKPGQAPRLLIYDASNRATGIPARFSGSGSGTDFTLTISSLEPEDFAVYYCQQVSLLPPTFGGGTKVEIK
Output line: 95.5

Input line: Can you share its CD112 blocking max inhibition (%)? I mean this binder: Antibody 34 (antibody, V domains shown, Purified as IgG; compared with an IgG1 isotype control and detected with anti-human IgG Fc; also called antibody clone number 34; clone 34) VH: QVQLVQSGAEVKKPGSSVKVSCKASGGTFSSAAISWVRQAPGQGLEWMGGIFPISGHANYAQKFQGRVTITADESTSTAYMELSSLRSEDTAVYYCARDTGRGYTRHFWFDPWGQGTLVTVSS VL: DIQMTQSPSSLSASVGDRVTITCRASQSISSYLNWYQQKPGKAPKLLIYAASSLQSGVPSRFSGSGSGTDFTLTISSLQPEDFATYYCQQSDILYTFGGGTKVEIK
Output line: 96.9
